All values here come from patent US20220073643A1.

- target: human Claudin18.2 (human)
- experimental.details: cell-based or functional assay
The entries below come with measured CDC % Relative activity values attached.
Kindly provide the numeric value in % only, without the unit symbol.

413B1C9 (antibody, V domains shown) VH: DVQLVESGGGLVQPGGSRKLSCAASGFTFSSFGMHWVRQAPEKGLEWVAYISSGSSPIYYADTVKGRFTISRDNPKNTLFLQMTSLRSEDTAMYFCARFYYGNSFDHWGQGTLVTVSA VL: DIVMTQSPSSLTVTTGEKVSMSCKSSQSLFNRGNQKSYLTWYQQKPGQPPKLLIYWASTRESGVPDRFTGSGSGTDFTLTISSVQAEDLAVYYCQNNYIYPLTFGAGTKLELK :: 10.4
256C3D3 (antibody, V domains shown) VH: QAYLQQSGAELVRSGASVKMSCKASGYAFTSHNMHWVKQTPGQGLEWIGYISPGNGYTNYNQKFRGKATLTADTSSSTAYMQIGSLTSEDSAVYFCTRDYYGNSFAYWGQGTLVTVSA VL: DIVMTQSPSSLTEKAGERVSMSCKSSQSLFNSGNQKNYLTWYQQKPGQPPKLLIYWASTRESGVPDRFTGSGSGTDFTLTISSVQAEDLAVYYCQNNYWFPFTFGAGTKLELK :: 165
420D5H5 (antibody, V domains shown) VH: DVQLVESGGGLVQPGGSRKLSCAASGFTLSGFGMHWIRQTPEKGLEWVAYISSGSRPIYYVDTVEGRFTISRDNPKNTLFLQMTSLRSEDTAMYFCARFYYGNSFDHWGQGTLVTVSS VL: DIVMTQSPSFLTVTAGEKVTMSCKSSQSLLNSGNQKNYLTWYQQKPGQPPKLLIYWASTRESGVPDRFTGSGSGTDFTLTIRGVQAEDLALYYCQNAYSFPLTFGAGTKLELK :: 78.3

Asked: Looking for the measured CDC % Relative activity of 259C6F4 (antibody, V domains shown) VH: QAYLQQSGAELVRSGASVKMSCKASGYTFSSHNIHWVKQTPGQGLEWIGYIYPGNGDTNYNQKFKGKATLTADTSSSTAYMQISSLTSEDSAVYFCARDYYGNSFVYWGQGTLVTVSA VL: DIVMIQSPSSLTEKAGEKVSMSCKSSQSLLNSGNQKNYLTWYQQKPGQPPKLLIYWASTRESGVPDRFTGSGSGTDFTLTISSVQAEDLAVYYCQNAYRFPFTFGAGTKLELK , can you help?
Given back: 125

Asked: Looking for the measured CDC % Relative activity of 417A6F11 (antibody, V domains shown) VH: EVQLQQSGPELVKPGASMKISCKASGYSFTGYTMNWVKQSHGKNLEWIGLINPYNGGTSYNQKFKGKATLTVDKSSSTAYMELLSLTSEDSAVYYCARGDYWGQGTTLTVSS VL: DIVMTQSPSSLTVTAGEKVTMSCKSSQSLLNSGNQKNYLTWYQQKPGQPPKLLIYWASTRESGVPDRFTGSGSGTDFTLTISSVQAEDLAVYYCQNDYSYPTFGAGTKLELK , can you help?
Given back: 440
